- Organism: Danio rerio
- assay.method.text: Toxicity against zebrafish embryo assessed as skeletal deformities at 5 ug/ml measured at 96 hrs post fertilization by inverted microscopic analysis
- Format: organism-based
- condition.label: in vivo

molecule: Cl.N=C(N)N/N=C/c1ccc(-c2ccc(Br)cc2)s1
Activity, %: 0
--
molecule: Cl.Cl.N=C(N)N/N=C/c1ccc(-c2ccc(/C=N/NC(=N)N)s2)cc1
Activity, %: 0
--
molecule: C[C@@H](c1ncncc1F)[C@](O)(Cn1cncn1)c1ccc(F)cc1F [VORICONAZOLE]
Activity, %: 100
--
molecule: Cc1ccc(-c2ccc(/C=N/NC(=N)N)s2)cc1.Cl
Activity, %: 0

Reference source: ChEMBL document CHEMBL3763135
